System: COLO 205
Assay: NCI tumour cell line growth inhibition, 48 h
The source made the active and inactive calls. Cut-off read from the data, not from the text of the source: active = GI50 up to about 1.1 µM and inactive = higher.
Reply using exactly one outcome from TRUE = active, FALSE = inactive

Returns: the outcome recorded for "N#C/C(=C\NC(=S)c1ccncc1)c1nc2ccccc2s1" in this assay.
FALSE

Returns: the outcome recorded for "O=C1c2ccccc2C(=O)c2c(/C=C\N3CCCCC3)ccnc21" in this assay.
FALSE

Returns: the outcome recorded for "CCCCC/C=C\C=C\CCCCCCCCC(=O)OC" in this assay.
FALSE

Returns: the outcome recorded for CC1=C2c3ccccc3N(S(=O)(=O)c3ccccc3)[C@H]2[C@H](C(=O)N2C3CC4CC[C@@]3(CS2(=O)=O)C4(C)C)CC1 (stereo partly specified) in this assay.
FALSE

Returns: the outcome recorded for "CC1(C)CCC(=O)c2c(O)ccc(O)c21" in this assay.
FALSE

Returns: the outcome recorded for "N/C(CCSCCSCC/C(N)=N\O)=N\O" in this assay.
FALSE

Returns: the outcome recorded for "O=S(=O)(Nc1nccs1)c1ccc(Nc2nc(-c3cccs3)nc3ccc(I)cc23)cc1" in this assay.
FALSE

Returns: the outcome recorded for N#CC(c1cc(Cl)ncn1)c1nc2ccccc2s1 (stereo unspecified) in this assay.
FALSE

Returns: the outcome recorded for "O=C(Nc1ccccc1C(=O)Nc1nccs1)c1ccccc1" in this assay.
FALSE

Returns: the outcome recorded for "CCCNc1c(Cl)cc(Cl)c2[nH]c3ccccc3c(=O)c12" in this assay.
FALSE

Returns: the outcome recorded for CN(CCO)c1nc(=O)c2c(n1C1OC(CO)C(O)C(O)C1O)CCCC2 (stereo unspecified) in this assay.
FALSE

Returns: the outcome recorded for CC1=C2CC3=C(C)C(=O)O[C@H]3C[C@@H](C)[C@@H]2CC1 [AMERICANOLIDE D] in this assay.
FALSE

Returns: the outcome recorded for "O=C(Oc1ccccc1)c1cc2cc(CCl)ccc2oc1=O" in this assay.
FALSE

Returns: the outcome recorded for "O=c1[nH]nc(-c2ccccc2)n1/N=C/c1c[nH]c2ccccc12" in this assay.
FALSE

Returns: the outcome recorded for "Cc1c2c(cc3c1[nH]c1ccccc13)C=NCC2" in this assay.
FALSE

Returns: the outcome recorded for CCC1(OC(C)=O)C(=O)OCc2c1cc1n(c2=O)Cc2cc3ccccc3nc2-1 (stereo unspecified) in this assay.
FALSE

Returns: the outcome recorded for "COc1cccc(N2CCc3c(C)c(C#N)c4nc5ccccc5n4c32)c1" in this assay.
FALSE

Returns: the outcome recorded for "NCC(=O)Nc1ccc(Cl)cc1C(=O)c1ccc[nH]1" in this assay.
FALSE

Returns: the outcome recorded for "O=C(NC(=O)c1ccccc1[N+](=O)[O-])Nc1ccc(Oc2ncc(Cl)cn2)c([N+](=O)[O-])c1" in this assay.
TRUE

Returns: the outcome recorded for COc1cccc(C2c3cc4c(cc3OC(NNc3ccccc3)C2C)OCO4)c1OC (stereo unspecified) in this assay.
FALSE

Returns: the outcome recorded for COC1C=COC2(C)Oc3c(C)c(O)c4c(O)c(c(C5SCCS5)c(O)c4c3C2=O)NC(=O)C(C)=C/C=C\C(C)C2OC(C)(C)OC(C2C)C(C)C(OC(C)=O)C1C (stereo unspecified) in this assay.
FALSE

----------
Tested on: T47D
Experiment: NCI tumour cell line growth inhibition, 48 h
Calls of active or inactive are those of the source. Cut-off read from the data, not from the text of the source: active = GI50 up to about 1.1 µM and inactive = higher.
measured_metric: GI50

The reported T47D GI50 of "Cc1sc2[nH]c(=O)oc(=O)c2c1C" is > 86.5 µM (inactive)

The reported T47D GI50 of "O=C1C(Cl)=C(N2CCN(CCOCCO)CC2)C(=O)c2ncccc21" is 2.23 µM (inactive)

The reported T47D GI50 of CC1CN=C(N(Cc2ccccc2)C(=O)Nc2ccc(Cl)c(Cl)c2)S1 (stereo not given) is 16.9 µM (inactive)

The reported T47D GI50 of COc1ccc(/C=C\c2cc(OC)c(OC)c(OC)c2)cc1O [COMBRETASTATIN A4] is 41 µM (inactive)

The reported T47D GI50 of COc1ccc(C2N(c3ccc(F)c([N+](=O)[O-])c3)C(=O)N3C(c4ccc(OC)cc4)N(c4ccc(F)c([N+](=O)[O-])c4)C(=O)N23)cc1 (stereo not given) is > 100 µM (inactive)

The reported T47D GI50 of "O=[N+]([O-])/C(Cl)=C(/C(Cl)=C(Cl)Cl)N1CCCCC1" is 11.8 µM (inactive)

The reported T47D GI50 of "O=C(O[C@@H](/C=C/c1ccccc1)P1(=O)N(Cc2ccccc2)[C@H]2CCCC[C@@H]2N1Cc1ccccc1)c1ccccc1" is 2.44 µM (inactive)

The reported T47D GI50 of "OCCSCc1cc(Cl)cc(Cl)c1O" is > 100 µM (inactive)

The reported T47D GI50 of C#CCNC(Cc1ccccc1)C(=O)O (stereo not given) is > 100 µM (inactive)

The reported T47D GI50 of "COc1ccc(/C(=N/N=c2[nH]c3ccccc3[nH]2)C(=O)O)cc1" is > 100 µM (inactive)

----------
Test system: OVCAR-8
Assay: NCI tumour cell line growth inhibition, 48 h
Calls of active or inactive are those of the source. No stated cut-off is given here; in the data, active = GI50 up to about 1.1 µM and inactive = higher.
measured_metric: GI50

So, CC(NC(=O)OC(C)(C)C)C(=O)NC(Cc1ccccc1)C(=O)NCC(=O)ON=C1CCCC1 (stereo unspecified) ? Its GI50 was > 100 µM (inactive)

So, "CC(=O)NC1=C[C@@H]([C@H]2COC(C)(C)O2)OC1=O" ? Its GI50 was > 100 µM (inactive)

So, "O=C1C(Cl)=C(N2CCN(CCOCCO)CC2)C(=O)c2ncccc21" ? Its GI50 was > 10 µM (inactive)

So, "Cc1sc2[nH]c(=O)oc(=O)c2c1C" ? Its GI50 was 65.8 µM (inactive)

So, "O=C(N(O)c1ccccc1Cl)C(O)(c1ccccc1)c1ccccc1" ? Its GI50 was 76.2 µM (inactive)

So, O=C(O)C1CCCN1Cc1c[nH]c2ccccc12 (stereo unspecified) ? Its GI50 was > 100 µM (inactive)

----------
Tested on: SK-OV-3
Experiment: NCI tumour cell line growth inhibition, 48 h
Active and inactive are the calls of the source. No stated cut-off is given here; in the data, active = GI50 up to about 1.1 µM and inactive = higher.
Reply using exactly one outcome from active, inactive

Returns: the outcome recorded for "COc1cc2c(c3c1c(=O)c1ccccc1n3C)C=C([N+](=O)[O-])C(C)(C)O2" in this assay.
active

Returns: the outcome recorded for "CO[C@@](c1ccccc1)(c1nc(C#N)c(N)o1)C(F)(F)F" in this assay.
inactive

Returns: the outcome recorded for N#CC(NNC(=O)c1ccccc1O)c1cccc(O)c1 (centres undefined) in this assay.
inactive

Returns: the outcome recorded for "O=C(NC(=O)c1ccccc1[N+](=O)[O-])Nc1ccc(Oc2ncc(Cl)cn2)c([N+](=O)[O-])c1" in this assay.
active

Returns: the outcome recorded for "N#Cc1c(-c2ccc(Cl)cc2)cc(-c2ccc(Nc3ccnc4cc(C(F)(F)F)ccc34)cc2)[nH]c1=O" in this assay.
inactive

Returns: the outcome recorded for C=C1C(C(O)C[C@H](C)C2O[C@@]3(CCCCO3)CCC2C)O[C@@H]2CCC3(CCC(/C=C/[C@@H](C)C4CC(C)=CC5(O4)O[C@H](C[C@](C)(O)C(=O)O)CCC5O)O3)OC2[C@@H]1O (some centres undefined) in this assay.
active

Returns: the outcome recorded for "O=C(N(O)c1ccccc1Cl)C(O)(c1ccccc1)c1ccccc1" in this assay.
inactive

Returns: the outcome recorded for "O=C(N/C(=C\c1cccc([N+](=O)[O-])c1)c1nc2c3c(ccc2[nH]1)C(=O)c1ccccc1C3=O)c1ccccc1" in this assay.
inactive

Returns: the outcome recorded for "CC(C)(CN)CN" in this assay.
inactive

----------
System: OVCAR-5
Test: NCI tumour cell line growth inhibition, 48 h
Active and inactive are the calls of the source. No stated cut-off is given here; in the data, active = GI50 up to about 1.1 µM and inactive = higher.
Reply using exactly one outcome from active, inactive

Returns: the outcome recorded for COC(=O)C(C(=O)C(=O)Nc1ccccc1C)c1nc2ccc([N+](=O)[O-])cc2nc1O (stereo unspecified) in this assay.
inactive

Returns: the outcome recorded for "Cc1cc(-c2ccc[nH]2)on1" in this assay.
inactive

Returns: the outcome recorded for "CN(C)CCNC(=O)c1cccc2cc3ccc4ccccc4c3nc12" in this assay.
active

Returns: the outcome recorded for "O=C(CCc1cc(O)ccc1O)OCCc1ccccc1" in this assay.
inactive

Returns: the outcome recorded for COC(=O)C1CC2(CCC1=O)Cc1ccccc1C2=O (stereo unspecified) in this assay.
inactive

Returns: the outcome recorded for COC(=O)C1(C)C=CC(=O)C2(C)C1C(O)C1OC3CC(c4ccoc4)C(C)=C3C1(C)C2CC(=O)O (stereo unspecified) in this assay.
inactive

----------
Test system: CCRF-CEM
Experiment: NCI tumour cell line growth inhibition, 48 h
Calls of active or inactive are those of the source. No stated cut-off is given here; in the data, active = GI50 up to about 1.1 µM and inactive = higher. Square brackets hold non-standard residues; d marks the D form. Peptide text beside a SMILES is read from it. * marks the point of attachment. ξ: configuration not given here. Propanoyl(3-(4-MeO-Ph)) = COc1ccc(CCC(=O)*)cc1; Thr(3ξ) = CC(O)[C@H](N)C(=O)O; dNMeL = CN[C@H](CC(C)C)C(=O)O; ξLac = CC(O)C(=O)O
Reply using exactly one outcome from 1.0 (active), 0.0 (inactive)

Returns: the outcome recorded for COC(=O)[C@@H](NC(=O)[C@@H](CC(C)C)N(C)C(=O)[C@@H]1CCCN1C(=O)C(C)O)C(C)OC(=O)CCc1ccc(OC)cc1 (stereo partly drawn) (H-[ξLac]P[dNMeL][Thr(3ξ)](Propanoyl(3-(4-MeO-Ph)))-OMe) in this assay.
0.0

Returns: the outcome recorded for COc1cc([C@@H]2c3cc4c(cc3[C@@H](NC(=O)c3ccccc3)C3COC(=O)[C@@H]32)OCO4)cc(OC)c1O (stereo partly drawn) in this assay.
0.0

Returns: the outcome recorded for CC[C@@]1(OC(=O)C(N)CCCCN)C(=O)OCc2c1cc1n(c2=O)Cc2cc3ccccc3nc2-1 (stereo partly drawn) in this assay.
1.0

Returns: the outcome recorded for OC1CC2CCC(C1)N2CCCN1c2ccccc2Sc2ccc(Cl)cc21 (stereo not drawn) in this assay.
0.0

Returns: the outcome recorded for "N=C(N)C1=C(O)NC(=O)N(C2CCCCC2)C1" in this assay.
0.0

Returns: the outcome recorded for "O=C(CCCN1CCC2(CC1)CC(=O)N(N1CCCCCC1)C2=O)c1ccccc1" in this assay.
0.0

Returns: the outcome recorded for "Cc1c2c(cc3c1[nH]c1ccccc13)C=NCC2" in this assay.
0.0

Returns: the outcome recorded for "Cc1cc(CCC(=O)NCCNc2c3ccccc3nc3ccccc23)cc(C)c1O[Si](C)(C)C(C)(C)C" in this assay.
1.0
